measurement protocol: qHTS profiling for inhibitors of Plasmodium falciparum proliferation (AID 504749);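 also: 0% = DMSO vehicle and full inhibition = artemisinin control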
reported conditions: P. falciparum in erythrocytes, SYBR Green DNA, 72 h; at 12.8 µM (top of the series); parasite line A
Results filed as inconclusive are left out.
metric name: activity, negative = inhibition (%)

[[record]]
compound = "CCN1CCC[C@@H](OC(=O)C(c2ccccc2)c2ccccc2)C1"
metric_name = "activity, negative = inhibition"
endpoint_result = 0.857

[[record]]
compound = "CS(=O)(=O)c1ccc([C@H](O)[C@H](CO)NC(=O)C(Cl)Cl)cc1"
metric_name = "activity, negative = inhibition"
endpoint_result = -20.3

[[record]]
compound = "CC(C)(C)NC(=O)[C@@H]1CC[C@@H]2[C@@H]3CC[C@@H]4NC(=O)C=C[C@@]4(C)[C@H]3CC[C@]21C"
metric_name = "activity, negative = inhibition"
endpoint_result = 6.77

[[record]]
compound = "CC(=C(CCOP(=O)(O)O)SC(=O)c1ccccc1)N(C=O)Cc1cnc(C)nc1N"
metric_name = "activity, negative = inhibition"
endpoint_result = -4.37

[[record]]
compound = "C=CCOc1ccccc1OC[C@H](O)CNC(C)C"
metric_name = "activity, negative = inhibition"
endpoint_result = -6.89

[[record]]
compound = "NS(=O)(=O)c1cc2c(cc1Cl)N[C@@H](C(Cl)Cl)NS2(=O)=O"
metric_name = "activity, negative = inhibition"
endpoint_result = -8.3

[[record]]
compound = "COc1ccccc1OC[C@H](O)CO"
metric_name = "activity, negative = inhibition"
endpoint_result = 5.68

[[record]]
compound = "CO[C@H]1[C@H](O[C@H]2O[C@@H](C)[C@@H](O[C@@H]3C[C@](C)(O)[C@H](O)[C@H](C)O3)[C@@H](N(C)C)[C@@H]2O)[C@@H](CC=O)C[C@@H](C)[C@@H](O[C@H]2CC[C@H](N(C)C)[C@H](C)O2)/C=C\\C=C/C[C@@H](C)OC(=O)C[C@H]1O"
metric_name = "activity, negative = inhibition"
endpoint_result = -18

[[record]]
compound = "CC(=O)O[C@]1(C(C)=O)CC[C@@H]2[C@@H]3C=C(C)C4=CC(=O)CC[C@@]4(C)[C@H]3CC[C@]21C"
metric_name = "activity, negative = inhibition"
endpoint_result = -0.563

[[record]]
compound = "CC(C)NC[C@H]1CCc2cc(CO)c([N+](=O)[O-])cc2N1"
metric_name = "activity, negative = inhibition"
endpoint_result = 7.96

[[record]]
compound = "CC1=C(C(=O)O)N2C(=O)[C@@H](NC(=O)[C@@H](N)c3ccc(O)cc3)[C@@H]2SC1"
metric_name = "activity, negative = inhibition"
endpoint_result = 9.01

[[record]]
compound = "CCN[C@@H]1CN(CCCOC)S(=O)(=O)c2sc(S(N)(=O)=O)cc21"
metric_name = "activity, negative = inhibition"
endpoint_result = -7.28

[[record]]
compound = "COc1ccc([C@@H]2CC(=O)c3c(O)cc(O[C@H]4O[C@@H](CO[C@H]5O[C@@H](C)[C@@H](O)[C@@H](O)[C@@H]5O)[C@@H](O)[C@@H](O)[C@@H]4O)cc3O2)cc1O"
metric_name = "activity, negative = inhibition"
endpoint_result = 5.87

[[record]]
compound = "CCOC(=O)O[C@@H](C)OC(=O)[C@@H]1N2C(=O)[C@@H](NC(=O)[C@@H](N)c3ccccc3)[C@H]2SC1(C)C"
metric_name = "activity, negative = inhibition"
endpoint_result = 6.23

[[record]]
compound = "CO[C@]1(NC(=O)C2SC(=C(C(N)=O)C(=O)O)S2)C(=O)N2C(C(=O)O)=C(CSc3nnnn3C)CS[C@H]21 (some centres not stated)"
metric_name = "activity, negative = inhibition"
endpoint_result = -5.23

[[record]]
compound = "NCc1ccccc1CC(=O)N[C@@H]1C(=O)N2C(C(=O)O)=C(CSc3nnnn3CC(=O)O)CS[C@@H]12"
metric_name = "activity, negative = inhibition"
endpoint_result = 1.91

[[record]]
compound = "C[C@H](O)Cn1cnc2c1c(=O)n(C)c(=O)n2C"
metric_name = "activity, negative = inhibition"
endpoint_result = 7.57

